# pIC50 listing for each entry below
Test system: NCI-H1299
Assay: Antiproliferative activity against human NCI-H1299 cells assessed as inhibition of cell proliferation incubated for 48 hrs by MTT assay
Type: functional, cell-based
Conditions: NCI-H1299, 48 h
pIC50: −log10 of the molar value.
quantity_measured: pIC50

>>> reported_result("N#CC1=C(N)Oc2cc3oc(-c4ccccc4)cc(=O)c3c(O)c2C1c1ccc(Cl)cc1 (centres undefined)")
4.48
>>> reported_result("N#CC1=C(N)Oc2cc3oc(-c4ccccc4)cc(=O)c3c(O)c2C1c1ccccc1Cl (centres undefined)")
4.36
>>> reported_result("N#CC1=C(N)Oc2cc3oc(-c4ccccc4)cc(=O)c3c(O)c2C1c1cccc([N+](=O)[O-])c1 (centres undefined)")
4.39
>>> reported_result("N#CC1=C(N)Oc2cc3oc(-c4ccccc4)cc(=O)c3c(O)c2C1c1cccc(F)c1 (centres undefined)")
4.39
>>> reported_result("Cc1ccc(C2C(C#N)=C(N)Oc3cc4oc(-c5ccccc5)cc(=O)c4c(O)c32)cc1 (centres undefined)")
4.55
>>> reported_result("COc1ccc(-c2cc(=O)c3c(O)c4c(cc3o2)OC(N)=C(C#N)C4c2ccc(F)cc2)c(OC)c1 (centres undefined)")
4.35
>>> reported_result("N#CC1=C(N)Oc2cc3oc(-c4ccccc4)cc(=O)c3c(O)c2C1c1ccccc1F (centres undefined)")
4.34
>>> reported_result("N#CC1=C(N)Oc2cc3oc(-c4ccccc4)cc(=O)c3c(O)c2C1c1ccc(Br)cc1 (centres undefined)")
4.73
>>> reported_result("Cc1ccc(C2C(C#N)=C(N)Oc3cc4oc(-c5ccccc5)cc(=O)c4c(O)c32)c(C)c1 (centres undefined)")
4.38
>>> reported_result("COc1ccc(C2C(C#N)=C(N)Oc3cc4oc(-c5ccccc5)cc(=O)c4c(O)c32)cc1 (centres undefined)")
4.40
>>> reported_result("N#CC1=C(N)Oc2cc3oc(-c4ccccc4)cc(=O)c3c(O)c2C1c1cccc(Br)c1 (centres undefined)")
4.62
